B1: library; a variant is named by its letters at N, in order (parent)
chain: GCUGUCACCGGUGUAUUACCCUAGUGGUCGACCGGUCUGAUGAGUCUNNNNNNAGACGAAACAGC

Variants of: B1
ASSAY INFO: normalized RNA/DNA level with ligand (relative to sTRSVctl = 100) (log10 (% of sTRSVctl)); ligand: hypoxanthine (xanthine aptamer); higher = less ribozyme self-cleavage, higher mRNA level
STATED CONDITIONS: ligand concentration (+) RNA-Seq: 5 mM, HEK293T, reporter: mCherry (pCS4076), ligand present: yes
REPORTED METRIC: normalized RNA/DNA level with ligand (log10)
Output spec: single numeric token, no unit.

See these solved cases before continuing.
UAUUAG = 1.87
CCUUGC = 1.95
UUAGCU = 1.97

Answer with the recorded normalized RNA/DNA level with ligand (log10) for the variant listed here: `UGCAAA`
1.88
